Experiment: Approximate solubility (visual) in solvents
Format: physicochemical
Conditions: organic solvent or mixture, thermodynamic from solid; benzonitrile, 20° C.; read-out: Approx. solubility
Property: solubility

>>> result("O=C1N[C@H](c2cncc(C#Cc3ccccc3)c2)[C@@H](c2ccccc2Cl)O1 [Compound 1]")
"> 100 mg/mL"

====

Experiment: Approximate solubility (visual) in solvents
Type: physicochemical
Conditions: organic solvent or mixture, thermodynamic from solid; 2-butanol, 20° C.; read-out: Approx. solubility
Property: solubility

>>> result("O=C1N[C@H](c2cncc(C#Cc3ccccc3)c2)[C@@H](c2ccccc2Cl)O1 [Compound 1]")
"50 to 100 mg/mL"

====

Assay: Approximate solubility (visual) in solvents
Type: physicochemical
Details: organic solvent or mixture, thermodynamic from solid; toluene, 20° C.; read-out: Approx. solubility
Property: solubility

>>> result("O=C1N[C@H](c2cncc(C#Cc3ccccc3)c2)[C@@H](c2ccccc2Cl)O1 [Compound 1]")
"25 to 30 mg/mL"

====

Target: BSEP (Homo sapiens, UniProt O95342)
Sequence (O95342 whole entry): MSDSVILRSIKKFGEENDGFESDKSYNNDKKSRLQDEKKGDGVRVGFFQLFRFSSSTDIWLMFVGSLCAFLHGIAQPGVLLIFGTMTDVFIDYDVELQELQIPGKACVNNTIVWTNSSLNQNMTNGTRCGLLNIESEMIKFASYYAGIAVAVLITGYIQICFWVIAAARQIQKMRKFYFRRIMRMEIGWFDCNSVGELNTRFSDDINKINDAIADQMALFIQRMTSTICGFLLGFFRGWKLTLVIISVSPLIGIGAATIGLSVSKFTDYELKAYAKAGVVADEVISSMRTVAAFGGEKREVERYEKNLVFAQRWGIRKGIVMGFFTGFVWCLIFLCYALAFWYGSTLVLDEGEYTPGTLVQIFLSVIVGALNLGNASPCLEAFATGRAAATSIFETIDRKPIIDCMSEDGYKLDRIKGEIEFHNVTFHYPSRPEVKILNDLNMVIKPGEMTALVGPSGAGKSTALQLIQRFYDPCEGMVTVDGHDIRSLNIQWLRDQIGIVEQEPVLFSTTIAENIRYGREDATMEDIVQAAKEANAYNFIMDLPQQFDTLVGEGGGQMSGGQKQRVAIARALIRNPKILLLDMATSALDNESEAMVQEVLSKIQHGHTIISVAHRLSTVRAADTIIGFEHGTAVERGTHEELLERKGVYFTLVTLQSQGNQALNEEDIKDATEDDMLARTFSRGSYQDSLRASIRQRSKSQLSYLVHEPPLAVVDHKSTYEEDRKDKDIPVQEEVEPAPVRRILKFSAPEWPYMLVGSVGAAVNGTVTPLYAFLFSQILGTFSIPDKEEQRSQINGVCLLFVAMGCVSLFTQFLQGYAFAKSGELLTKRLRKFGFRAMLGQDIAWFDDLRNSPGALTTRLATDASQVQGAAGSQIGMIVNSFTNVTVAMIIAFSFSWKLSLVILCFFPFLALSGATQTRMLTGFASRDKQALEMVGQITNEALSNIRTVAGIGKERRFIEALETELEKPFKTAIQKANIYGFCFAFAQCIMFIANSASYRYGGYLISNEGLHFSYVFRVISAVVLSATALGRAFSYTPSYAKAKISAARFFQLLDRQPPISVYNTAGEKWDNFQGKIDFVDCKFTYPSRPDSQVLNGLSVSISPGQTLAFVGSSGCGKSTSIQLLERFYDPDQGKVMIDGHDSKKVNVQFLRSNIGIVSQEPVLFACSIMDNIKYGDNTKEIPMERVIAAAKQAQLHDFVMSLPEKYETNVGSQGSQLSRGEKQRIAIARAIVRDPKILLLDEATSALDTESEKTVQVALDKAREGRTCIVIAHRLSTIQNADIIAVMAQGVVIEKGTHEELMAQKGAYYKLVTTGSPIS
pIC50: −log10 of the molar value.
Property: pIC50

>>> number("O=C1N[C@H](c2cncc(C#Cc3ccccc3)c2)[C@@H](c2ccccc2Cl)O1 [Compound 1 Form A]")
4.86

====

Assay: Solubility in EtOAc/heptane mixtures by HPLC
Assay type: physicochemical
Settings: organic solvent or mixture, thermodynamic from solid; EtOAc/heptane 32:68 (% v/v), 20° C.
Property: solubility (µg/mL)

>>> number("O=C1N[C@H](c2cncc(C#Cc3ccccc3)c2)[C@@H](c2ccccc2Cl)O1")
6000

====

Experiment: Solubility in EtOAc/heptane mixtures by HPLC
Format: physicochemical
Conditions: organic solvent or mixture, thermodynamic from solid; EtOAc/heptane 70:30 (% v/v), 20° C.
Property: solubility (mg/mL)

>>> number("O=C1N[C@H](c2cncc(C#Cc3ccccc3)c2)[C@@H](c2ccccc2Cl)O1")
49

====

Assay: Approximate solubility (visual) in solvents
Type: physicochemical
Settings: organic solvent or mixture, thermodynamic from solid; acetone/water 90:10, 20° C.; read-out: Approx. solubility
Property: solubility

>>> result("O=C1N[C@H](c2cncc(C#Cc3ccccc3)c2)[C@@H](c2ccccc2Cl)O1 [Compound 1]")
"> 100 mg/mL"

====

Test: Approximate solubility (visual) in solvents
Assay type: physicochemical
Conditions: organic solvent or mixture, thermodynamic from solid; methyl ethyl ketone (MEK), 20° C.; read-out: Approx. solubility
Property: solubility

>>> result("O=C1N[C@H](c2cncc(C#Cc3ccccc3)c2)[C@@H](c2ccccc2Cl)O1 [Compound 1]")
"> 100 mg/mL"

====

Assay: Solubility in EtOAc/heptane mixtures by HPLC
Assay type: physicochemical
Settings: organic solvent or mixture, thermodynamic from solid; EtOAc/heptane 70:30 (% v/v), 45° C.
Property: solubility (mg/mL)

>>> number("O=C1N[C@H](c2cncc(C#Cc3ccccc3)c2)[C@@H](c2ccccc2Cl)O1")
85

====

Target sequence: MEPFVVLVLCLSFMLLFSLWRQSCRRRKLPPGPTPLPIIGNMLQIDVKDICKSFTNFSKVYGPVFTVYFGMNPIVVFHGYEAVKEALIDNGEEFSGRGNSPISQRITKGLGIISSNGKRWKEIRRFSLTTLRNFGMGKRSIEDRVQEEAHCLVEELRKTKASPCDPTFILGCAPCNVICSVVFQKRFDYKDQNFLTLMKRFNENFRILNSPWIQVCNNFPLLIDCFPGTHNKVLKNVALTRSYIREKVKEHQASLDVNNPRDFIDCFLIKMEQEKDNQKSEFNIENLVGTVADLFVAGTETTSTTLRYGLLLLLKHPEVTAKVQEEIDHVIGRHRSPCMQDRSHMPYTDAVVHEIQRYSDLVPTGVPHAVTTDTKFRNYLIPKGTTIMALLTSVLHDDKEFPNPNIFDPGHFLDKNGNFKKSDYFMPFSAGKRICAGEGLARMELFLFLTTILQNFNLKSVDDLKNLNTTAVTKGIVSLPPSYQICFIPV
Property: IC50 (µM)

>>> number("O=C1N[C@H](c2cncc(C#Cc3ccccc3)c2)[C@@H](c2ccccc2Cl)O1 [Compound 1 Form A]")
52.1
